The measurements presented in this section are drawn from patent US20260207641A1.

test system: HMEC cells; assay: cells; format: cell-based; conditions: Homo sapiens, 48 h
observation_type: IC50 (mM)
Field: numeric (mM). Do not append units.

Can you share its IC50? I mean this compound: O=C1O[C@H]([C@@H](O)CO)C(O)=C1O
2.67

---

system: MDA-MB-468 cells; assay: Cytotoxicity dose response (CellTiter-Glo, 48 h); assay type: cell-based, human; conditions: Homo sapiens, MDA-MB-468, read-out: IC50 in combination with Vitamin C Safe Dose
observation_type: IC50 (µM)
Field: numeric (µM). Do not append units.

Can you share its IC50? I mean this compound: O=C(O)CCCc1ccc(N(CCCl)CCCl)cc1 [Chlorambucil]
28.7
